target: CDC7/DBF4 kinase (Homo sapiens, UniProt O00311); assay: ADP-Glo kinase assay, inhibition of CDC7/DBF4 kinase activity; type: biochemical; details: CDC7/DBF4, 10 μM ATP, first assay; read-out: IC50 (nM) First assay
Sequence (O00311 whole entry): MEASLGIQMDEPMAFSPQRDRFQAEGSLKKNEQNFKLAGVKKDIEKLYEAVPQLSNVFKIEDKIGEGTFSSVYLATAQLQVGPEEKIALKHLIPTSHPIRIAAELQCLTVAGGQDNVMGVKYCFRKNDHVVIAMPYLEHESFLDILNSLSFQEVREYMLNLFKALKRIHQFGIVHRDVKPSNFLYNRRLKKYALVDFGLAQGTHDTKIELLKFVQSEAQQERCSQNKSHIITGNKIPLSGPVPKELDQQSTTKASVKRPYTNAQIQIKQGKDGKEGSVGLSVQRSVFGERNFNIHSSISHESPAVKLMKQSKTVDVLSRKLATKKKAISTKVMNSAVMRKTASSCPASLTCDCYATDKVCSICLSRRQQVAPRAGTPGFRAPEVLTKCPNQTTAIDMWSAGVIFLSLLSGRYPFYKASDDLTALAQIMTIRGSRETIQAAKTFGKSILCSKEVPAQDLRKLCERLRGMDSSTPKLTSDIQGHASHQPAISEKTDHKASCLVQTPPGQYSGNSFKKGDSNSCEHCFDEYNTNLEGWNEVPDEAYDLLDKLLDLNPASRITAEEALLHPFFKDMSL
Sequence (Q9UBU7 whole entry partner): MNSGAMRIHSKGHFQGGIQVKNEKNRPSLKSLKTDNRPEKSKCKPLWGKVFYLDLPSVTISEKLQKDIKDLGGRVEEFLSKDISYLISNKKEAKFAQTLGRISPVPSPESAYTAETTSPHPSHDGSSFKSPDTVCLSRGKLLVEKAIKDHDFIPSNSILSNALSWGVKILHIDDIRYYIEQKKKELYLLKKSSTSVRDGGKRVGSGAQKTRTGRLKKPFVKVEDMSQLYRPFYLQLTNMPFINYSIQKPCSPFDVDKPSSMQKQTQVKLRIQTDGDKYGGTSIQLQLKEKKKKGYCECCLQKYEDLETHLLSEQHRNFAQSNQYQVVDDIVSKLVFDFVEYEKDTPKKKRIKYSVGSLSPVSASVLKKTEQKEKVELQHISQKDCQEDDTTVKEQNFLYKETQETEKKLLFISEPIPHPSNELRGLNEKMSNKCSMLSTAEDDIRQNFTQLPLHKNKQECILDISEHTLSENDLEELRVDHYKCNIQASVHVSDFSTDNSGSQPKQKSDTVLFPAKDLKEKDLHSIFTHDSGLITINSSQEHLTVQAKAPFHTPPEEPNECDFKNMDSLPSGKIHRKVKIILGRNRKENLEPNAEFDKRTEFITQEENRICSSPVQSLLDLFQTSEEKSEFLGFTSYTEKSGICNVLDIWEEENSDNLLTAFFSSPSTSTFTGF
Measure: IC50 (nM)
Record the value in nM, omitting the unit from your answer.

Task item: Which IC50 is listed for O=C(O)/C=C\C(=O)O.O=c1[nH]c([C@@H]2CC3CCN2CC3)nc2c3c(sc12)-c1cn[nH]c1CCC3 ?
Reply: 3.49

###

target: CDC7/DBF4 kinase (Homo sapiens); assay: ADP-Glo kinase assay, inhibition of CDC7/DBF4 kinase activity; format: biochemical; settings: CDC7/DBF4, 10 μM ATP, mean of two assays; read-out: IC50 (nM) Mean
Measure: IC50 (nM)
Record the value in nM, omitting the unit from your answer.

Task item: Which IC50 is listed for O=C(O)/C=C\C(=O)O.O=c1[nH]c([C@@H]2CC3CCN2CC3)nc2c3c(sc12)-c1cn[nH]c1CCC3 ?
Reply: 2.92
